Kindly supply the reported Percent Effect values for the records listed here.
- system-under-test: Tyrosyl-tRNA synthetase, putative (Trypanosoma cruzi (strain CL Brener))
- Sequence (whole entry): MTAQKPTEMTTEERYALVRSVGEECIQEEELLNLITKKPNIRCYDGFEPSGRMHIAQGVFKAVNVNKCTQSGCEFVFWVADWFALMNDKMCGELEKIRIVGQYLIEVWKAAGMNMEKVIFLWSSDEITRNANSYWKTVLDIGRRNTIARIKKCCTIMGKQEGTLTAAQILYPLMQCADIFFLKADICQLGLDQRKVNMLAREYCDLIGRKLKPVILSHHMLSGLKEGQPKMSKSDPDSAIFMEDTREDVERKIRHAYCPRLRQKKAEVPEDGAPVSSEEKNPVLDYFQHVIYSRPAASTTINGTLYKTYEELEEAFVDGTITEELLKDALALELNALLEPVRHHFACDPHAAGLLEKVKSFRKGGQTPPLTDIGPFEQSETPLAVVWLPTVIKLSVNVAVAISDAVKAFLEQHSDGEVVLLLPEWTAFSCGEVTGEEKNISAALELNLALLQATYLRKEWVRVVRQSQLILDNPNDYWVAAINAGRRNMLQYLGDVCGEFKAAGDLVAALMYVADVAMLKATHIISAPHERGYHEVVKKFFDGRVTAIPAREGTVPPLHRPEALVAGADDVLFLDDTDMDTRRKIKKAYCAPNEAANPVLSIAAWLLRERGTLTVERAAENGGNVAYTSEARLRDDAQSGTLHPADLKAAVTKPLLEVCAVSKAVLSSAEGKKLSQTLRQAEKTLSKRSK
- method: Trypanosoma cruzi tyrosyl tRNA synthetase (TcYRS) SOP
- Assay type: functional
- Set-up: scale not given: direction of the effect not stated beside the values
- experimental-setup: 30 µM
One number for each entry, in %.

[[record]]
molecule = "CCc1ccccc1NC(=O)N1CCn2cnc(COC)c2C1"
observed_result = -1.24

[[record]]
molecule = "CC(C)n1ncc2c1NC(=O)CSC2C(C)(C)C (configuration not stated)"
observed_result = 12.8

[[record]]
molecule = "CC(OCC1CC1)C(=O)N1CCCN(Cc2cnn(C)c2)CC1 (configuration not stated)"
observed_result = 17.7

[[record]]
molecule = "Cn1cccc1CNC(=O)CCCc1nnc2ccccn12"
observed_result = 2.56

[[record]]
molecule = "CCOC(C)c1nc(CN2CCNCC2)cs1 (configuration not stated)"
observed_result = -4.88


Can you give me Percent Effect for all of these, one by one?
1. Cc1cnn(CC2CN(Cc3nccn3C)CCO2)c1 (configuration not stated)
2. Cc1cc(C)c(CNC(=O)NCC(c2ccccc2)N(C)C)c(=O)[nH]1 (configuration not stated)

Outgoing:
1: 11; 2: 18.5

Hi, could you look up Percent Effect for each item in my list?
1. COC[C@H]1CCC[C@]12CN(C(=O)NCc1ccccc1)CCO2
2. Fc1ccc(CNCC2OCCc3cn(CC4CC4)nc32)cc1 (configuration not stated)
3. O=C(Cc1ccc(-n2cccn2)cc1)N1CCCC(n2cccn2)C1 (configuration not stated)

Outgoing:
[10.3, 7.69, 11.8]

Below are some molecules; for each one, tell me its Percent Effect.
1. Cc1ccc(C(=O)CCC(=O)N2CCC(c3nncn3C)CC2)cc1
2. O=C(c1ccc[nH]1)N1CCn2cc(CN3CCCC3)nc2C1

Outgoing:
1: 24.4; 2: 3.85
